# targetOrTestSystem: HLA-A*24 (human)
# assayRemarks: UV-ligand exchange, anti-b2m ELISA
reportedEndpoint: peptide exchange yield

>  <binder>
YYGPSLFLL [SEQ ID NO: 200 peptide …]

>  <peptide exchange yield>
50 to 75%

$$$$
>  <binder>
VFTRVSSFL [SEQ ID NO: 162 peptide …]

>  <peptide exchange yield>
50 to 75%

$$$$
>  <binder>
RYLNKAFHI [SEQ ID NO: 284 peptide …]

>  <peptide exchange yield>
50 to 75%

$$$$

Exercise: Answer with the recorded peptide exchange yield for the binder listed here: VYWDSAGAAHF [SEQ ID NO: 202 peptide …]
Solution: > 75%

Exercise: Answer with the recorded peptide exchange yield for the binder listed here: MYDSYWRQF [SEQ ID NO: 179 peptide …]
Solution: > 75%

Exercise: Answer with the recorded peptide exchange yield for the binder listed here: QYSSVFKSL [SEQ ID NO: 216 peptide …]
Solution: > 75%

Exercise: Answer with the recorded peptide exchange yield for the binder listed here: VYRDETGELF [SEQ ID NO: 226 peptide …]
Solution: 50 to 75%

Exercise: Answer with the recorded peptide exchange yield for the binder listed here: EYNQWFTKL [SEQ ID NO: 176 peptide …]
Solution: 50 to 75%
